- Study system: T1, human CD22-ECD-His protein (human, UniProt P20273 20-687)
- T1 construct: Recombinant, from HEK293E cells; also called hCD22-ECD-His; human CD22-His protein; not shown: His tag
- T1 sequence: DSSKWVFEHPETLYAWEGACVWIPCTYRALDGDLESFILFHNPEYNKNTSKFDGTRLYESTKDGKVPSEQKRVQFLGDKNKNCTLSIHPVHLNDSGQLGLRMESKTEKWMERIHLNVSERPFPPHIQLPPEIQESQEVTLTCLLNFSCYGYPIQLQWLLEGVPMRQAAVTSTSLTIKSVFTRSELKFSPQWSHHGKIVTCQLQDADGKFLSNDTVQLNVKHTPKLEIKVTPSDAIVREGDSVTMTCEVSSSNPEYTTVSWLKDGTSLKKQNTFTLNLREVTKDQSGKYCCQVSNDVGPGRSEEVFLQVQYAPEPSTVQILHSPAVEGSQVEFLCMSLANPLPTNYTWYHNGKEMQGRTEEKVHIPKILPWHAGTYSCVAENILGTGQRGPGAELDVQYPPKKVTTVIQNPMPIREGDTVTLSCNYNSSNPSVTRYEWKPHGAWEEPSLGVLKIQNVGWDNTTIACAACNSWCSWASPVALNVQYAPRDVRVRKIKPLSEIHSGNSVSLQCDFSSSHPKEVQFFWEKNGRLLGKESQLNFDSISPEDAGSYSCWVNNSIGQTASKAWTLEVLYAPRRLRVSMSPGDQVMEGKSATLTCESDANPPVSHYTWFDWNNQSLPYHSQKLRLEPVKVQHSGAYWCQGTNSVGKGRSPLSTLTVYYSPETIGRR
- Test protocol: SPR (Biacore), antibody captured on Protein A chip, CD22-ECD-His in solution
Assign class by koff: not lower than 0.0004 s⁻¹ means Fulfilled; lower than 0.0004 s⁻¹ means Not fulfilled.

Binder: HA22-hIgG1 (antibody, V domains shown) VH: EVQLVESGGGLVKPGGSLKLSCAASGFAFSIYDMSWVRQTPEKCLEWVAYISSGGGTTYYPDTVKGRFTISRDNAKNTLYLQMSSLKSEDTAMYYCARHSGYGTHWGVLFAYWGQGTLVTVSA VL: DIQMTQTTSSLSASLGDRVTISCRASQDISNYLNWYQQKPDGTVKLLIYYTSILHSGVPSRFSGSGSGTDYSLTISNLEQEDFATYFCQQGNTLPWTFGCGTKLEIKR
Class assignment: Not fulfilled

Binder: F1.200.11 (antibody, human IgG1, kappa, V domains shown, Chimeric IgG1 kappa) VH: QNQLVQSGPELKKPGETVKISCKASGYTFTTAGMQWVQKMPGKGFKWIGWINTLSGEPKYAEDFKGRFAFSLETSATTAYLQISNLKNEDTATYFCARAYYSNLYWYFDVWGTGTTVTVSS VL: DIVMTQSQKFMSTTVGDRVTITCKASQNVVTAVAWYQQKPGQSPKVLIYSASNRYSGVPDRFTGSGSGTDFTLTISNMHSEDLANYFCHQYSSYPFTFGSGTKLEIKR
Class assignment: Fulfilled

Binder: F1.7.6 (antibody, human IgG1, kappa, V domains shown, Chimeric IgG1 kappa) VH: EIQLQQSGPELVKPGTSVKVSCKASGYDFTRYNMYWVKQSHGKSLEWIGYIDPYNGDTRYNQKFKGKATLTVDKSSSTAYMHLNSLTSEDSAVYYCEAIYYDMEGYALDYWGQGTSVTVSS VL: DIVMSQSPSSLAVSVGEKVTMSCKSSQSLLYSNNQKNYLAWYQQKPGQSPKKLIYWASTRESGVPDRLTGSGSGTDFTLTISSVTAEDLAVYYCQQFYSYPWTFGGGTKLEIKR
Class assignment: Not fulfilled

Attention now shifts to the item below.
Request: For this binder, is measured koff 0.0004 s⁻¹ or higher? F2.42.9 (antibody, human IgG1, lambda, V domains shown, Chimeric IgG1 lambda) VH: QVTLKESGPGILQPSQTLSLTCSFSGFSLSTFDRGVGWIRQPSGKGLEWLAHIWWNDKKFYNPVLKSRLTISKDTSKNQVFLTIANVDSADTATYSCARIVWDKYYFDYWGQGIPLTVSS VL: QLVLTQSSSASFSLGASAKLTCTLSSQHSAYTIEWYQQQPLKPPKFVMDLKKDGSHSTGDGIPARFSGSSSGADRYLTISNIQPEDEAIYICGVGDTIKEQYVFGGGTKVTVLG
Response: Fulfilled

Values from patent US20240084003A1
